system: TNF-α; assay: LPS-stimulated J774 macrophages: TNF-α production; format: cell-based; conditions: Mus musculus, J774; LPS 10 μg/ml; 30 min pretreatment 0.1 to 30 μM; measured at 24 h; mean±SEM n=3-6; read-out: Inhibition of TNF-α (J774)
# note: boundary value 9 µM maps to Criterion not met; EC50 below it maps to Criterion met

>>> df
                                   compound  qualitative_label
0  CN(C)CC(=O)Nc1ccc2[nH]c(=O)c3ccccc3c2c1 [PJ34]      Criterion met
1  O=C(CN1CCCCC1)Nc1ccc2[nH]c(=O)c3ccccc3c2c1 [PJ36]  Criterion not met
2  O=C(CN1CCOCC1)Nc1ccc2[nH]c(=O)c3ccccc3c2c1 [PJ38]      Criterion met

Now for a further compound.
# input Please state whether EC50 is below 9 µM for CCN(CC)CC(=O)Nc1ccc2[nH]c(=O)c3ccccc3c2c1 [PJ44]
# output Criterion not met
